In this section we review reported TGI values for a set of molecules.
Test system: DMS 114 small cell lung
Assay: NCI tumour cell line growth inhibition, 48 h

molecule	TGI
COc1ccc(/C(=N/NC(N)=O)C2(O)C(=O)Nc3ccc([N+](=O)[O-])cc32)cc1 (stereo not given)	47.8 µM
O=C(O)c1ccccc1Cc1ccco1	> 100 µM
O=C(CC1=Nc2nnc(-c3nnc4n3C(=O)C(CC(=O)c3cccnc3)=N4)n2C1=O)c1cccnc1	> 100 µM
O=C(Nc1cccc2ccccc12)Oc1ccccc1C1CCCCC1	41.9 µM
COc1c2c(c3c(c1C1OC(C)[C@@H](C)O1)CC(C)(C)O3)C(=O)c1ccccc1C2=O (stereo not given in full)	> 100 µM
CCCNC1CC(n2cc(C)c(=O)[nH]c2=O)OC1CO (stereo not given)	> 100 µM
COc1cc(CCc2cccnc2)cc(OC)c1OC	> 100 µM
CC1=C(C(=O)NCc2ccccc2)C(c2ccc(C3C(C(=O)NCc4ccccc4)=C(C)NC(C)=C3C(=O)NCc3ccccc3)cc2)C(C(=O)NCc2ccccc2)=C(C)N1	25.9 µM
CCOc1ccc(NC(=O)CC2SC(=Nc3ccc(Cl)cc3)NC2=O)cc1 (stereo not given)	> 100 µM
FC(F)(F)C1(Cl)C(c2ccccc2)=C1c1ccccc1	25.6 µM

* * *

Tested on: IGROV1 ovarian
Experiment: NCI tumour cell line growth inhibition, 48 h; in the data active = GI50 below about 0.43 µM; inactive = the rest
Possible outcomes: yes (active), no (inactive)

molecule	label
C[n+]1c(/C=C\C=C\N2CCCCC2)sc2ccccc21	no
C=C1C(=O)O[C@H]2[C@H]1CC/C(CNC(=O)/C=C/c1ccc(Br)cc1)=C\CC[C@@]1(C)O[C@@H]21	no
CC(=O)N1CCN(C2=Nc3ccccc3CO2)C1=S	no
COc1cc2c(/C=N\N=C(N)N)c(Cl)[nH]c2cc1C	no
Cc1ccccc1NC(=S)Nc1ccccn1	no
Nc1ccn(C2OC(CO)C(O)C2F)c(=O)n1 (stereo not given)	no
CC1=NN(C(=O)c2ccccc2O)C(=O)/C1=C/c1ccc([N+](=O)[O-])cc1	no
Cc1nc2sccn2c1/C=C1/C(=O)Nc2ccccc21	no
COc1cc(/C(Cl)=C/C=C/C(=O)c2c(C)[n+]([O-])c3ccc(Cl)cc3[n+]2[O-])cc(OC)c1OC	no
CN(C)CCCOc1ccccc1NC1=C(Cl)C(=O)C(Nc2ccccc2OCCCN(C)C)=C(Cl)C1=O	yes

* * *

Tested on: SR leukemia
Assay: NCI tumour cell line growth inhibition, 48 h
Measured TGI of individual entries
value_type: TGI

compound	reported_result
Nc1nc(CCC(=O)Nc2cccc(C(F)(F)F)c2)cc(-c2cccc3ccccc23)n1	> 100 µM
Cc1c2cnccc2c(C)c2c1c1cc(C3OCCCO3)ccc1n2C	1.43 µM
CCOc1cc2c(cc1O)/C(=N\N)C[C@@H]1[C@@H]2CC[C@]2(C)[C@@H](O)CC[C@@H]12	> 100 µM
COc1cccc2c1OC1c3ccccc3OCC1C2 (stereo not given)	> 100 µM
CCOC(=O)CCCn1nnc(C(=O)OCC)c1C(=O)OCC	> 100 µM
Cc1cc(C)nc(NC(N)=NCCc2ccccc2)n1	14.5 µM
O=C(O)CSCc1cccc2ccccc12	> 100 µM
CCOc1ccc2nc(NC(=O)C(=O)C(C(=O)c3ccccc3-c3ccccc3)C3OC(=O)c4ccccc43)sc2c1 (stereo not given)	43 µM
Cc1ccc(C(=O)O/N=C2/CCCC/C2=C\c2ccccc2)cc1	> 100 µM
C1=C\SS/C=C\SS/C=C\SS/C=C\SS/1	> 100 µM

* * *

Tested on: UACC-62 melanoma
Assay: NCI tumour cell line growth inhibition, 48 h; in the data active means GI50 below about 0.43 µM; inactive means the rest
Classes used: active, inactive

compound	label
COc1cc(-c2nn3c(/C=C4/C(=O)Nc5ccccc54)c(-c4ccc(C)cc4)nc3s2)cc(OC)c1OC	inactive
COc1cc2c(/C=N\N=C(N)N)c(Cl)[nH]c2cc1C	inactive
COc1ccc2c(c1)C(=O)c1c-2n(CCCN)c(=O)c2ccccc12	active
C=C(CNC(=O)Nc1ccc(-c2ccccc2)cc1)c1ccc(C(=O)Nc2ccccc2N)cc1	inactive
COc1cc(/C(Cl)=C/C=C/C(=O)c2c(C)[n+]([O-])c3ccc(Cl)cc3[n+]2[O-])cc(OC)c1OC	inactive
Cc1[nH]ncc1-c1cc2nc(C3CC4CCN3CC4)[nH]c(=O)c2s1 (stereo not given)	inactive
COc1cc(C(=O)OCCCCCCCCCCC[P+](c2ccccc2)(c2ccccc2)c2ccccc2)ccc1O	inactive
Cc1ccc(C(=O)N(CCCN)[C@@H](c2nc3cc(Cl)ccc3c(=O)n2Cc2ccccc2)C(C)C)cc1	active
COc1cc2c(cc1OCCCN1CCN(CCCOc3cc4c(cc3OC)C(=O)N3CCC[C@H]3C=N4)CC1)C=CC(C)(C)O2	inactive
C[n+]1c(/C=C\C=C\N2CCCCC2)sc2ccccc21	inactive
COc1cccc([C@H]2CC(=O)c3cc4c(cc3N2)OCO4)c1	active
C=C(Cn1c(=O)c2ccccc2c2ccccc21)c1ccc(C(=O)Nc2ccccc2N)cc1	inactive
CC1[C@@H]2[C@@H](C=C3C4CCC5Cc6nc7c(nc6C[C@@]5(C)C4C[C@H](O)[C@]32CO)CC2CCC3C4=C[C@H]5O[C@@]6(O[C@@](C)(CO)C[C@@H]6O)C(C)[C@@]5(O)[C@]4(C)[C@@H](O)CC3[C@]2(C)C7)O[C@]12CCC(C)(C)O2 (stereo not given in full)	active
Cc1c2cnccc2c(C)c2c1c1cc(C3OCCCO3)ccc1n2C	active
CC(=O)C1=C(O)C=C2Oc3c(C(=O)/C=C/c4cc(C(F)(F)F)cc(C(F)(F)F)c4)c(O)c(C)c(O)c3[C@]2(C)C1=O	inactive

* * *

// reported TGI per item
Tested on: A549 NSCLC
Assay: NCI tumour cell line growth inhibition, 48 h

molecule	TGI
CCSc1nnc2c(-c3ccccc3)n[nH]c2n1	> 100 µM
Cc1nc2c(=S)[nH]ncc2[nH]1	> 100 µM
CCc1nn(CN2CCN(C)CC2)c(=S)n1/N=C\c1ccc(-c2ccc([N+](=O)[O-])cc2)o1	> 100 µM
S=c1sc2c(Cl)ncnc2n1-c1ccccc1	67.8 µM
CCOc1ccccc1NC(=O)CCC(=O)OC	> 100 µM
Cc1ccc(NCCCN2CCN(CCCNc3ccc(C)c4sc5ccccc5c(=O)c34)CC2)c2c(=O)c3ccccc3sc12	> 100 µM
C=C1C(=O)O[C@H]2[C@H]1CC/C(CNC(=O)/C=C/c1ccc(Br)cc1)=C\CC[C@@]1(C)O[C@@H]21	8.72 µM
COc1cccc2c1OC1c3ccccc3OCC1C2 (centres undefined)	> 100 µM
C=CCC1(O)c2ccccc2C(=O)c2c(O)ccc(O)c21 (centres undefined)	> 87.3 µM
O=C1C(N2CCCC2)=CC(=O)c2c(O)c(N3CCCC3)c(Cl)c(O)c21	> 10 µM
CC(C)(C)OC(=O)CN1CCNCCNCC1	> 100 µM
CC(=O)OCC1OC(Nc2[nH]c(=O)n(C)c(=O)c2-c2csc(N)n2)C(OC(C)=O)C(OC(C)=O)C1OC(C)=O (centres undefined)	> 100 µM
O=C(O)c1ccccc1.[Ag]	> 58.7 µM
N#Cc1cc(C#N)c(Cl)nc1N	> 10 µM
COc1cc2c(/C=N\N=C(N)N)c(Cl)[nH]c2cc1C	37.3 µM
CCN(CC)CCNC(=O)c1ccccc1NC(=O)C(=O)Nc1ccccc1C(=O)NCCN(CC)CC	> 100 µM
CCOC(=O)c1cn(-c2ccccc2)c(=S)n2c1nc1ccccc12	> 100 µM
C/C=C/[C@@]1(OC(=O)c2ccccc2)C[C@@H]2CCCC[C@@H]21	36.7 µM
CC[P+](C)(Cc1ccccc1)c1ccccc1 (centres undefined)	> 100 µM
CN(C)c1nc2sc3c(c2c(=O)o1)CCCC3	> 100 µM
Cc1ccc(C)n1-c1ccccc1C1SCCCS1	> 100 µM
CC12CC3C(CC1SCC(=O)O2)C3(C)C (centres undefined)	> 100 µM
O=C1C=CC2CCC1C2 (centres undefined)	> 100 µM
COC(=O)C(=O)C(C(=O)Nc1cccc(C)c1C)C1Sc2ccccc2NC1=O (centres undefined)	> 25 µM

* * *

Catalogue of TGI readings, one per entry.
Tested on: NCI/ADR-RES ovarian
Test: NCI tumour cell line growth inhibition, 48 h

molecule	TGI
O=C(O)c1ccccc1.[Ag]	> 100 µM
O=C1C=CC2CCC1C2 (stereo not drawn)	> 100 µM
CCOC(=O)c1cnc(-n2[nH]c(C)c(CCO)c2=O)[nH]c1=O	> 100 µM
O=S(=O)(c1ccc(Br)cc1)n1c2ccc(Br)cc2c2nc3ccccc3nc21	> 100 µM
C1CC2=C(C1)[Se]C(=C1Sc3nsnc3S1)[Se]2	> 100 µM
O=C1c2ccccc2C(=O)N1n1c(Cc2ccccc2)n[nH]c1=O	> 100 µM
C[n+]1c(/C=C\C=C\N2CCCCC2)sc2ccccc21	> 100 µM
FC(F)(F)c1ccc(-c2nc(-c3nc4cc(Cl)c(Cl)cc4[nH]3)c3ccccn23)cc1	> 100 µM
O=C(O)CSCc1cccc2ccccc12	> 100 µM
Clc1ccc2c(SCC3CO3)c3ccccc3nc2c1 (stereo not drawn)	7.24 µM
Cc1nc2c(=S)[nH]ncc2[nH]1	> 100 µM
COc1cc2c(/C=N\N=C(N)N)c(Cl)[nH]c2cc1C	50.5 µM
C=CCC1(O)c2ccccc2C(=O)c2c(O)ccc(O)c21 (stereo not drawn)	12.1 µM
